The reported measurements were obtained from ChEMBL document CHEMBL1961873.

- Assay System: Glycogen synthase kinase-3 beta (Homo sapiens) (UniProt P49841);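 also: values are mean percent inhibition of GSK3B activity, from the GSK Published Kinase Inhibitor Set (PKIS) screening dataset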
- Sequence (P49841 whole entry, looked up): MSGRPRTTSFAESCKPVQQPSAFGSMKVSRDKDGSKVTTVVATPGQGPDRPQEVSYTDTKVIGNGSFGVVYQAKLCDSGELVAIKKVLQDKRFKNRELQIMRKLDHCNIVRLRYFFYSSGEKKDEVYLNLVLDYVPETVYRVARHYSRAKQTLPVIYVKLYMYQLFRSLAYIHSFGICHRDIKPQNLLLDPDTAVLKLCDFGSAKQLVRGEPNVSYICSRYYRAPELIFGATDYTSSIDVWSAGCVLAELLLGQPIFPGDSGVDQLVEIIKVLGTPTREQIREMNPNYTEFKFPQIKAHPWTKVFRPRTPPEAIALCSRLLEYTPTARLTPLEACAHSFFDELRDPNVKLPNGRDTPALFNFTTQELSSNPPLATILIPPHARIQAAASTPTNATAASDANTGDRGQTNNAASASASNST
- Applied Conditions: at 0.1 µM
We begin with a simple list: items and their reported inhibition.
Give just the numeric value; % need not be written.

Reference set, count: 5
Query Smiles: CN1CCC(n2cnc(-c3ccc(F)cc3)c2-c2ccnc(Nc3ccccc3)n2)CC1
Numeric Readout: 4.95

Query Smiles: COC(=O)c1sc(-n2cnc3cc(OC)c(OC)cc32)cc1OCc1ccccc1C(F)(F)F
Numeric Readout: -0.28

Query Smiles: CC(C)COC(=O)c1ccc2c(c1)/C(=C/Nc1ccc(S(N)(=O)=O)cc1)C(=O)N2
Numeric Readout: 36.1

Query Smiles: COc1ccc(-c2cc(-c3c[nH]nc3-c3ccccn3)ccn2)cc1
Numeric Readout: 3.56

Query Smiles: O=C(Nc1n[nH]c2cc(-c3ccc(F)cc3)ccc12)C1CC1
Numeric Readout: 2.61

Okay, next one:
inhibition recorded for this compound, COc1cccc(-c2c[nH]c3c(N/N=C/c4ccncc4)ncnc23)c1 , is 76.6

---

- Assay System: Misshapen-like kinase 1 (Homo sapiens) (UniProt Q8N4C8);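 also: mean inhibition value reported, from GSK PKIS kinase profiling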
- Sequence (Q8N4C8 whole entry, looked up): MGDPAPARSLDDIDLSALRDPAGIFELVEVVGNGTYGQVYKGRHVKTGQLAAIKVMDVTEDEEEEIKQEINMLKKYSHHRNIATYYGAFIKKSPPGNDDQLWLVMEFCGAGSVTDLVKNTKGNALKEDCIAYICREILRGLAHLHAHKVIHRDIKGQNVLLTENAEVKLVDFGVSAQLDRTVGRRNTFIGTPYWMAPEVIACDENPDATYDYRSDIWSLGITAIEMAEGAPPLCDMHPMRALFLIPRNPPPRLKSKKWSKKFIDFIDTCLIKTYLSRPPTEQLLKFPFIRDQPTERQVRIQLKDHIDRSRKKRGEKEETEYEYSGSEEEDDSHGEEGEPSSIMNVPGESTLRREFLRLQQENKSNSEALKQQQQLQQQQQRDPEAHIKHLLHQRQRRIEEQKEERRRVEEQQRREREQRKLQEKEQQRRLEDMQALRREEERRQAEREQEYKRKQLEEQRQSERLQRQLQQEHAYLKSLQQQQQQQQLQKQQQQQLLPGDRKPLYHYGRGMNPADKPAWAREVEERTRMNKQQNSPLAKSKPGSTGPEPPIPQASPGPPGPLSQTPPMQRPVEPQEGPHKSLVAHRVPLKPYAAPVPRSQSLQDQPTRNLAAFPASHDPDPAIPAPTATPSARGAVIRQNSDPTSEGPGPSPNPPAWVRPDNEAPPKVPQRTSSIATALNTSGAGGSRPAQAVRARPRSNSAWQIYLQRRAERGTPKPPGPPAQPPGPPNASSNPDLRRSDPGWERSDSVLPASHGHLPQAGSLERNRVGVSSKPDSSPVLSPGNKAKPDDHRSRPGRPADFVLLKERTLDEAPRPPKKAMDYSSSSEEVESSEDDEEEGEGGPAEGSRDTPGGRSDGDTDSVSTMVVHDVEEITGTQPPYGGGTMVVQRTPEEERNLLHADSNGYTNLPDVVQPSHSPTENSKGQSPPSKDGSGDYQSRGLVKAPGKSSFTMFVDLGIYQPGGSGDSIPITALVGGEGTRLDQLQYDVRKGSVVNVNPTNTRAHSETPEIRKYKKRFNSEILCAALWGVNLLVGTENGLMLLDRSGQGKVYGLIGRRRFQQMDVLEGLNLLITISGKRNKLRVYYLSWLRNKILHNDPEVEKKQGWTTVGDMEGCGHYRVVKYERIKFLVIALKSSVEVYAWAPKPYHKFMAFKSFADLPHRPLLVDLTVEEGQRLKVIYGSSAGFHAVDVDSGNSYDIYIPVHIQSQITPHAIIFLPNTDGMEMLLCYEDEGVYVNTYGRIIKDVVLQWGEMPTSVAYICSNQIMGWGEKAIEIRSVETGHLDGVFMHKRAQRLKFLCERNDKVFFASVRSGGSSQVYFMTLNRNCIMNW
- Applied Conditions: at 0.1 µM
Readout Type: inhibition (%)
The answer is to be given in %; state only the numeric part.

GET /value?item= CS(=O)(=O)CCNCc1ccc(-c2ccc3ncnc(Nc4ccc(OCc5ccccc5)c(C(F)(F)F)c4)c3c2)o1 &field=inhibition returns 5.41

The molecule CC(=O)NCc1cccc(C#Cc2cncnc2Nc2ccc(OCc3cccc(F)c3)c(Cl)c2)c1 showed inhibition equal to 2.48

The molecule CCN(CC)S(=O)(=O)c1ccc(OC)c(Nc2ncc(-c3ccccc3)o2)c1 showed inhibition equal to 4.58

Reported inhibition for CCCN(CCS(C)(=O)=O)Cc1ccc(-c2ccc3ncnc(Nc4ccc(OCc5cccc(F)c5)c(Cl)c4)c3c2)o1 was 2.96

Lookup result for COc1cc2ncn(-c3cc(OCc4ccccc4C(F)(F)F)c(C(=O)N(C)C)s3)c2cc1OC ; measured inhibition: 1.7

Just so you know, measured inhibition for O=S(=O)(CCNCc1ccc(-c2ccc3ncnc(Nc4ccc(OCc5cccc(F)c5)c(Cl)c4)c3c2)o1)c1ccccc1 came out at 5.49

# inhibition (molecule: Fc1ccc(-c2nn3ccccc3c2-c2ccncc2)cc1 ) is 4.74

So, NS(=O)(=O)c1ccc(Nc2ncc(-c3ccccc3)o2)cc1 ? Its inhibition was 8.89

Short answer for COC(=O)c1sc(-n2cnc3cc(OC)c(OC)cc32)cc1OCc1ccccc1C(F)(F)F : inhibition was 5.47

---

- Assay System: Serine/threonine-protein kinase PLK1 (Homo sapiens);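 also: reported value is a mean PLK1 inhibition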
- Applied Conditions: at 1 µM
Readout Type: inhibition (%)
Give a bare numeral; the unit % is implied.

# example entries with known answers
Query Smiles: COc1cccc(-n2ncc3c(N/N=C/c4ccc(F)cc4)ncnc32)c1
Units: %
Numeric Readout: 4.22
//
Query Smiles: COc1cc(N2CCN(C(C)C)CC2)ccc1Nc1nc(Nc2ccc(F)cc2C(N)=O)c2cc[nH]c2n1
Units: %
Numeric Readout: 64.8
//
Query Smiles: CN1CCC(n2cnc(-c3ccc(F)cc3)c2-c2ccnc(Nc3ccccc3)n2)CC1
Units: %
Numeric Readout: 2.65
//
Query Smiles: c1ccc(-c2nc3n(c2-c2ccc4c(c2)OCO4)CCC3)nc1
Units: %
Numeric Readout: 1.37

Lab note: next molecule to report on.
Recorded inhibition (molecule Cc1cccc2c1NC(=O)/C2=N\Nc1ccc(S(N)(=O)=O)cc1 ): 2.15

---

Recorded measurements of inhibition, one per entry
- Assay System: Testis-specific serine/threonine-protein kinase 1 (Homo sapiens);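 also: mean percent inhibition of TSSK1, from the GSK PKIS screening dataset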
- Applied Conditions: at 0.1 µM
Report the figure in % without appending any unit label.

// inhibition value for CS(=O)(=O)CCNCc1coc(-c2ccc3ncnc(Nc4ccc(OCc5ccccc5)cc4)c3c2)c1 : 1.84

Notebook: c1ccc(-c2nc3n(c2-c2ccc4c(c2)OCO4)CCC3)nc1 , inhibition read as 0.83

get_value(item= CC(C)COC(=O)c1ccc2c(c1)/C(=C/Nc1ccc(S(N)(=O)=O)cc1)C(=O)N2 , readout=inhibition) returns 11.4

Reported inhibition of Fc1ccc(-c2nn3ncccc3c2-c2ccnc(Nc3ccc4c(c3)OCCO4)n2)cc1 : 4.06

Value of measured inhibition for the entry CNC(=O)c1cncc(/C=C/c2ccccc2Cl)c1 : 0.22

---

- Assay System: PAS domain-containing serine/threonine-protein kinase (Homo sapiens);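 also: reported value is the mean percent inhibition of PASK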
- Applied Conditions: at 1 µM
Property: inhibition; scope: individual molecules
Dear colleague, please return just the value in %, with no unit written.

Answered examples (2):
Molecule: FC(F)(F)c1cccc(-c2nn3ncccc3c2-c2ccnc(Nc3ccc4c(c3)OCCO4)n2)c1
Readout Type: inhibition
Numeric Readout: -1.92

Molecule: COc1cc2c(cc1Nc1nc(Nc3ccsc3C(N)=O)c3cc[nH]c3n1)N(C(=O)CN(C)C)CCC2(C)C
Readout Type: inhibition
Numeric Readout: -1.18

Turning now to a further record.
// field: inhibition; key: CC1=C(C(=O)Nc2cc(Cl)c3[nH]ncc3c2)C(c2ccc(C(F)(F)F)cc2)CC(=O)N1 (stereo not drawn) ; value = 0.16

---

- Assay System: Calcium/calmodulin-dependent protein kinase type II subunit alpha (Homo sapiens) (UniProt Q9UQM7);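 also: reported values are averages (mean inhibition of CAMK2A)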
- Sequence (Q9UQM7 whole entry): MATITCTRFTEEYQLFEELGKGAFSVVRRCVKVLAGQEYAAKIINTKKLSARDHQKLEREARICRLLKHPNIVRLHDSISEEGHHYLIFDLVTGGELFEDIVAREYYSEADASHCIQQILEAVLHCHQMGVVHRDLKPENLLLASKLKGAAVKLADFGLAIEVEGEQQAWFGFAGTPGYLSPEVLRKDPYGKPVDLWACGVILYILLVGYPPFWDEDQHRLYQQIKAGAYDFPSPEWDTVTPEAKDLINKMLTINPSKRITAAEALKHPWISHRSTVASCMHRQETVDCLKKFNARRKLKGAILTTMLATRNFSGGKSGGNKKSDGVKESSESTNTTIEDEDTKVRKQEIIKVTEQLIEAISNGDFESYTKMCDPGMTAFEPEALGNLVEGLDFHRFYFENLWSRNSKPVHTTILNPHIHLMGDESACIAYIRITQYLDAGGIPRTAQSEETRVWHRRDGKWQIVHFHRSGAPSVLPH
- Applied Conditions: at 0.1 µM
Readout Type: inhibition (%)
Field format: number, assumed %, no unit text.

Query Smiles: CC(C)(CO)CNC(=O)c1ccc2c(c1)/C(=N/Nc1ccc(S(N)(=O)=O)cc1)C(=O)N2
inhibition / %: -0.2

Query Smiles: COc1cc(Nc2nccc(Nc3ccc4c(C)n[nH]c4c3)n2)cc(OC)c1OC
inhibition / %: 4.54

Query Smiles: Cc1ccc(O)cc1Nc1ccnc2cc(-c3ccccn3)ccc12
inhibition / %: 6.72

Query Smiles: COC(=O)c1sc(-n2cnc3cc(OC)c(OC)cc32)cc1OCc1ccccc1C(F)(F)F
inhibition / %: 5.18

Query Smiles: CCN(CC)S(=O)(=O)c1ccc(OC)c(Nc2ncc(-c3ccccc3)o2)c1
inhibition / %: 3.02

So for N#Cc1c(NC(=O)CN2CCOCC2)sc2c1CCCC2 , the logged inhibition turned out to be 3.08

The reported value for O=S(=O)(CCNCc1ccc(-c2ccc3ncnc(Nc4ccc(OCc5cccc(F)c5)c(Cl)c4)c3c2)o1)c1ccccc1 in terms of inhibition is 4.23

// inhibition lookup, compound = COC(=O)Nc1nc2ccc(Oc3ccc(NC(=O)Nc4cccc(Cl)c4)cc3)cc2[nH]1 , result: -1.44

Lab note: CCN1CCC(CC(=O)Nc2n[nH]c3nnc(-c4cccc(F)c4F)cc23)CC1 gave inhibition of 3.17

Record summary for CN(C)CCOc1ccc(-c2nc(-c3ccncc3)c(-c3ccc4c(c3)CC/C4=N\O)[nH]2)cc1 : reported inhibition = 2.79

---

- Assay System: Serine/threonine-protein kinase Chk2 (Homo sapiens)
- Applied Conditions: at 0.1 µM
- Description: GSK_PKIS: CHEK2 mean inhibition at 0.1 uM [Nanosyn]
Readout Type: inhibition (%)
Write the answer as a number in %, unit excluded.

Here is how some compounds turned out for inhibition.
Query Smiles: NS(=O)(=O)c1ccc(Nc2ncc(-c3ccccc3)o2)cc1
Numeric Readout: 1.94
--
Query Smiles: CS(=O)(=O)CCNCc1coc(-c2ccc3ncnc(Nc4ccc(OCc5ccccc5)cc4)c3c2)c1
Numeric Readout: 5.28
--
Query Smiles: COc1cccc(-c2c[nH]c3c(N/N=C/c4ccncc4)ncnc23)c1
Numeric Readout: 5.73
--
Query Smiles: Nc1nc(-c2cccc(Cl)c2)c(-c2ccc3ncccc3n2)s1
Numeric Readout: 10.1
--
Query Smiles: NS(=O)(=O)c1ccc(N/N=C2\C(=O)Nc3ccc4ncccc4c32)cc1
Numeric Readout: 5

Continue with the compound presented below.
So, COc1cc(/C=N/Nc2ncnc3[nH]ncc23)ccc1O ? Its inhibition was 4.23

---

- Assay System: Serine/threonine-protein kinase MARK2 (Homo sapiens);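 also: mean percent inhibition of PAR-1Balpha kinase activity, reported from the GSK PKIS screen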
- Applied Conditions: at 0.1 µM
Parameter: inhibition. Scope: all listed entries.
Your answer should be a plain number; it is taken to be in %.

Known inhibition results, listed for orientation:
Query Smiles: [O-][S+]1CCN(Cc2ccc(-c3ccc4ncnc(Nc5ccc(OCc6cccc(F)c6)c(Cl)c5)c4c3)o2)CC1
inhibition / %: 2.19
//
Query Smiles: Cc1ccc2c(-c3ccnc(Nc4ccccc4)n3)c(-c3ccc(F)cc3)nn2n1
inhibition / %: 0.87
//
Query Smiles: Cc1cccc(Nc2ncc(-c3ccccc3)o2)c1
inhibition / %: 2.22
//
Query Smiles: NS(=O)(=O)c1ccc(N/N=C2\C(=O)Nc3ccc4ncccc4c32)cc1
inhibition / %: 5.97
//
Query Smiles: c1ccc(COc2ccc(Nc3ncnc4ccc(-c5ccco5)cc34)cc2)cc1
inhibition / %: -1.72

Entry COc1cc(N2CCN(C(C)C)CC2)ccc1Nc1nc(Nc2ccc(F)cc2C(N)=O)c2cc[nH]c2n1 ; assay system Serine/threonine-protein kinase MARK2 (Homo sapiens); inhibition recorded at 5.75

For CCn1c(-c2nonc2N)nc2cnc(Oc3cccc(NC(=O)c4ccc(N(C)C)cc4)c3)cc21 on Serine/threonine-protein kinase MARK2 (Homo sapiens), measured inhibition was 0.56

Param item: CS(=O)(=O)CCNCc1coc(-c2ccc3ncnc(Nc4ccc(OCc5ccccc5)cc4)c3c2)c1 ; param system: Serine/threonine-protein kinase MARK2 (Homo sapiens); output inhibition: -0.55

Summary: CN1CCC(n2cnc(-c3ccc(F)cc3)c2-c2ccnc(N)n2)CC1 , Serine/threonine-protein kinase MARK2 (Homo sapiens), inhibition = -1.15

The compound N#Cc1c(NC(=O)c2ccc(F)cc2)sc2c1CCCC2 on Serine/threonine-protein kinase MARK2 (Homo sapiens): inhibition was 0.6

// compound Cc1ccc(O)cc1Nc1ccnc2cc(-c3ccccn3)ccc12 , assay Serine/threonine-protein kinase MARK2 (Homo sapiens), inhibition value: 0.54

Observed inhibition, Serine/threonine-protein kinase MARK2 (Homo sapiens), CNC(=O)c1cncc(/C=C/c2ccccc2Cl)c1 : 1.5

Record for CCn1cc(-c2ccnc3[nH]ccc23)c(-c2cccc(NC(=O)Nc3ccc(OCc4ccccc4)cc3)c2)n1 under target or system Serine/threonine-protein kinase MARK2 (Homo sapiens): inhibition reported as -0.11

# NC(=O)c1sc(-n2cnc3ccc(C(F)(F)F)cc32)cc1OCc1ccccc1Br with Serine/threonine-protein kinase MARK2 (Homo sapiens): inhibition is -0.38

The value of inhibition recorded for COC(=O)Nc1nc2ccc(S(=O)(=O)c3ccc(NC(=O)Nc4cc(C(F)(F)F)ccc4F)cc3)cc2[nH]1 when tested on Serine/threonine-protein kinase MARK2 (Homo sapiens) reads -2.72

Lab entry: Serine/threonine-protein kinase MARK2 (Homo sapiens) assay, compound CNC(=O)c1cc(-c2ccc(F)cc2)cc(-c2ccc(S(=O)(=O)N3CCCC3)cc2)c1N , inhibition = 2.35

Sample CCCN1CCC(c2ccc(Nc3nc(Nc4cc(F)ccc4C(N)=O)c4cc[nH]c4n3)c(OC)c2)CC1 , system: Serine/threonine-protein kinase MARK2 (Homo sapiens). Its inhibition is 7.99

Bench note, Serine/threonine-protein kinase MARK2 (Homo sapiens): Nc1ncc(-c2cccc(S(N)(=O)=O)c2)c2scc(-c3ccc(F)c(Cl)c3)c12 , inhibition reads 0.24

The reported inhibition value, Serine/threonine-protein kinase MARK2 (Homo sapiens), for N#Cc1c(NC(=O)CN2CCOCC2)sc2c1CCCC2 reads 1.3

I looked up CCn1c(-c2nonc2N)nc2ccccc21 and its inhibition for Serine/threonine-protein kinase MARK2 (Homo sapiens) was -0.05
